Values were extracted from ChEMBL document CHEMBL3734742.

Molecular target: Proteinase-activated receptor 2 (Homo sapiens) (UniProt P55085)
Sequence (P55085 whole entry): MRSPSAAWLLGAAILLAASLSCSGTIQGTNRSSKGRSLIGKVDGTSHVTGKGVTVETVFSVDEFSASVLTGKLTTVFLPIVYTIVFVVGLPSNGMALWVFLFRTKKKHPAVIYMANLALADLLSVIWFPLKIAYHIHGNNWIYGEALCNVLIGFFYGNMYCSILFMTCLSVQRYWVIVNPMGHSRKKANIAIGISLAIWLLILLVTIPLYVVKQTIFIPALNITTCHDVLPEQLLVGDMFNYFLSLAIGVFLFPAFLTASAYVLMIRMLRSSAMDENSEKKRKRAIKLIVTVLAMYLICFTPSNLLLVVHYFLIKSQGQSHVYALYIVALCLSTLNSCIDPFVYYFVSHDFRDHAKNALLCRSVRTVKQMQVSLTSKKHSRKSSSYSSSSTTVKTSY
Assay: Antagonist activity at protease-activated receptor 2 (unknown origin) expressed in CHO-K1 cells assessed as inhibition of trypsin-induced calcium flux at 10 uM by FLIPR assay
Format: functional, cell-based
The source made the active and inactive calls. The rule behind the calls is not given here.
Metric Name: inhibition

Known inhibition results, listed for orientation:
smiles_record=Cc1ccc(CNc2nc(Oc3cc(Cl)cc(Cl)c3)nc3ccc(F)cc23)o1 recorded_result="< 10%"
smiles_record=Clc1ccc(Oc2nc(NCc3ccco3)c3ccccc3n2)cc1Cl recorded_result=inactive
smiles_record=Cc1ccoc1CNc1nc(Oc2ccc(Cl)c(Cl)c2)nc2ccc(F)cc12 recorded_result="< 10%"
smiles_record=Cc1ccoc1CNc1nc(Oc2cccc(Cl)c2)nc2ccccc12 recorded_result=inactive
smiles_record=CCCCCNc1nc(NCc2ccco2)c2cc(F)ccc2n1 recorded_result=73.2%

Here is the next item to consider.
Give the reported value of inhibition for this record: Clc1cc(Cl)cc(COc2nc(NCc3ccco3)c3ccccc3n2)c1
inactive
